Biological target: CSF1 receptor (CSF1R) (UniProt P07333)
Sequence (P07333 20-972 limits assumed): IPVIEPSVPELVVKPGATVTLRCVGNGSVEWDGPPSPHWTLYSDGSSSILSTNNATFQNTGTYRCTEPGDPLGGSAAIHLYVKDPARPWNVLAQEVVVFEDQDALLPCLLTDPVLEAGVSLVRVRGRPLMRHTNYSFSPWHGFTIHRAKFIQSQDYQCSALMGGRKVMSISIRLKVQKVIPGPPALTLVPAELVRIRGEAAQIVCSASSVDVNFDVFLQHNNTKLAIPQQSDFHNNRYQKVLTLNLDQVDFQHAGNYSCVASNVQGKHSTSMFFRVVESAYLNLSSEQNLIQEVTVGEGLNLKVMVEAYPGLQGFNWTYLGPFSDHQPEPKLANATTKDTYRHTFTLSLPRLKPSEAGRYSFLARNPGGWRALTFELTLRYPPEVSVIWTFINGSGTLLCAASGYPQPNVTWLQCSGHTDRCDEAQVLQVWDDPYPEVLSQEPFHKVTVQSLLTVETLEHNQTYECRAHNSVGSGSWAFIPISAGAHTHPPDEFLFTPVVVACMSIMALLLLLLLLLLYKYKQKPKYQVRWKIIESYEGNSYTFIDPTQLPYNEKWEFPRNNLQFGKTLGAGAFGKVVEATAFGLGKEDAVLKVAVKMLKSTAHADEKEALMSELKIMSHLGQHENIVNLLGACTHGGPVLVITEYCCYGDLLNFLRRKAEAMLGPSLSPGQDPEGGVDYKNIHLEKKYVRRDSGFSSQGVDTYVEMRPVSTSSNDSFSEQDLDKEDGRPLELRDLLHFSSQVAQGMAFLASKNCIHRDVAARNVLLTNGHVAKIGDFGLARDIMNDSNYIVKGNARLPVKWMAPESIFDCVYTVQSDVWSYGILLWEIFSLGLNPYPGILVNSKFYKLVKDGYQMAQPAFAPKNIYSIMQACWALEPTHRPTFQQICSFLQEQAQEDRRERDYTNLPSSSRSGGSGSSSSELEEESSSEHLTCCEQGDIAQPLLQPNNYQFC
Test: cell-based or functional assay
Endpoint label: EC50, HEK293 CSF1R/SRE reporter, biological replica 2

- Binder: "CSF1 H9F (ligand) EEVSEYCSFMIGSGHLQSLQRLIDSQMETSCQITFEFVDQEQLKDPVCYLKKAFLLVQDIMEDTMRFRDNTPNAIAIVQLQELSLRLKSCFTKDYEEHDKACVRTFYETPLQLLEKVKNVFNETKNLLDKDWNIFSKNCNNSFAECSSQD"
  Measured value: "1.18e-08"

*Q* So what does the record say about EC50, HEK293 CSF1R/SRE reporter, biological replica 2 for CSF1 S18Q (ligand) EEVSEYCSHMIGSGHLQQLQRLIDSQMETSCQITFEFVDQEQLKDPVCYLKKAFLLVQDIMEDTMRFRDNTPNAIAIVQLQELSLRLKSCFTKDYEEHDKACVRTFYETPLQLLEKVKNVFNETKNLLDKDWNIFSKNCNNSFAECSSQD ?
*A* 1.99e-08

Value source: patent US20250304640A1
